Test: Octanol/water distribution coefficient (logD), CAMDIS assay
Format: physicochemical
Conditions: octanol/water; read-out: logD
We use 3 as the dividing line for logD: on or above the line is condition met, below is condition not met.

Here are 3 compounds together with their reported answers.
{"smilesData": "CC(C)(Oc1ccc(C(F)(F)F)cn1)C(=O)Cc1cc(C(C)(C)C)no1", "discreteLabel": "condition met"}
{"smilesData": "COCCOCCc1cc(NC(=O)C(C)(C)S(=O)(=O)C2CCOCC2)on1", "discreteLabel": "condition not met"}
{"smilesData": "CC1(C)C(C(=O)c2cn(CCN3CCOCC3)c3ccccc23)C1(C)C", "discreteLabel": "condition met"}

Input line: Given the entry Cn1c(C(C)(C)C)cc(=NC(=O)c2cc(C(F)(F)F)ccc2OCC(C)(C)O)n1CC1CCC1 , answer whether its logD meets or surpasses 3.
Output line: condition met

Input line: Given the entry N#Cc1cc(NC(=O)CCc2nc(-c3ccc(F)cc3Cl)no2)cnc1CC(F)(F)F , answer whether its logD meets or surpasses 3.
Output line: condition met

* * *

Assay: Single-dose pharmacokinetics in male Wistar rats
Assay type: in vivo
Conditions: rat, plasma, iv, 1 mg kg^–1 i.v.
parameter: AUC(0-inf) (ng·h/mL)
Number in ng·h/mL, nothing else.

Input line: What AUC(0-inf) value was documented for this compound, Cn1c(C(C)(C)C)cc(=NC(=O)c2cc(C(F)(F)F)ccc2OCC(C)(C)O)n1CC1CCC1 [RNB-61] ?
Output line: 5170

* * *

Target: human wild type CB2R (Homo sapiens, UniProt P34972)
Sequence (P34972 whole entry): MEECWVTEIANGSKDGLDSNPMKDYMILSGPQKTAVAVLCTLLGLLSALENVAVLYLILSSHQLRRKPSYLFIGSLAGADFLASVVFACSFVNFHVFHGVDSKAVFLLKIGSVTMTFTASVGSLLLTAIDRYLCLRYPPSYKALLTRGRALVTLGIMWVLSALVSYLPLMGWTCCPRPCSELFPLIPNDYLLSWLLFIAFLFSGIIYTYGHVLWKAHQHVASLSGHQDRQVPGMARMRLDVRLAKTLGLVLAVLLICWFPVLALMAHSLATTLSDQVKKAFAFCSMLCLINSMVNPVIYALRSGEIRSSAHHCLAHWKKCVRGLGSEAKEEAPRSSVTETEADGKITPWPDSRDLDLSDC
Experiment: cAMP assay in CHO cells
Assay type: cell-based
Design: expressed in transfected cells; host or cells: CHO cells
parameter: EC50 (nM)
Number in nM, nothing else.

Input line: What EC50 value was documented for this molecule, CC1(C)C(C(=O)c2cn(CCN3CCOCC3)c3ccccc23)C1(C)C ?
Output line: 0.17

* * *

Assay: Brain penetration study with/without P-gp inhibitor tariquidar
Assay type: in vivo, male C57/BL6 mice
Details: male, C57/BL6, mouse, brain, iv; RNB-61 1 mg kg^–1 i.v., no tariquidar; read-out: brain T1/2 (converted)
parameter: half-life (h)
Number in h, nothing else.

Input line: What half-life value was documented for this molecule, Cn1c(C(C)(C)C)cc(=NC(=O)c2cc(C(F)(F)F)ccc2OCC(C)(C)O)n1CC1CCC1 ?
Output line: 5.98

* * *

Target: PPARg (Homo sapiens, UniProt P37231)
Sequence (P37231 1-505): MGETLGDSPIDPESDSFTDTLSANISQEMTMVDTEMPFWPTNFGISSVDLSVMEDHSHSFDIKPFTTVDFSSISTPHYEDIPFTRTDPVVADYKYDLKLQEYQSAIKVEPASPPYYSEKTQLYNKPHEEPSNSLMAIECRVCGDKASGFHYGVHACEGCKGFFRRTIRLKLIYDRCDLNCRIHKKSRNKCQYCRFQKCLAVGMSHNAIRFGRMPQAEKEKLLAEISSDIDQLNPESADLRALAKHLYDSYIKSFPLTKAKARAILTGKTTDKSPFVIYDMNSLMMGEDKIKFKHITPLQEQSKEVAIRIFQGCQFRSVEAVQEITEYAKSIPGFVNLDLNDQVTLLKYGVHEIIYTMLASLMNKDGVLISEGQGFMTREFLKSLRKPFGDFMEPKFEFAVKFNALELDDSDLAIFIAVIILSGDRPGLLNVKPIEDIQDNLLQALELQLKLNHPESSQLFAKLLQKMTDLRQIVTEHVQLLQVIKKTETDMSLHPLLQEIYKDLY
parameter: IC50

Input line: What IC50 value was documented for this compound, Cn1c(C(C)(C)C)cc(=NC(=O)c2cc(C(F)(F)F)ccc2OCC(C)(C)O)n1CC1CCC1 ?
Output line: > 10 µM

* * *

Target: human CB2R (Homo sapiens, UniProt P34972)
Sequence (P34972 whole entry): as the sequence (P34972 whole entry) above
Test: Competition binding assay with [3H]-CP55940, HEK cell membranes
Conditions: Ki hCB1R over Ki hCB2R
parameter: hCB2R selectivity
The answer should be a number; do not append a unit.

{"smilesData": "CC(C)(Oc1ccc(C(F)(F)F)cn1)C(=O)Cc1cc(C(C)(C)C)no1", "quantitativeResult": 307}

Input line: What hCB2R selectivity value was documented for this molecule, Cn1c(C(C)(C)C)cc(=NC(=O)c2cc(C(F)(F)F)ccc2OCC(C)(C)O)n1CC1CCC1 ?
Output line: 6810

* * *

Test system: P-gp
Assay: Brain penetration study with/without P-gp inhibitor tariquidar
Format: in vivo, male C57/BL6 mice
Conditions: male, C57/BL6, mouse, plasma, iv, with tariquidar 5 mg kg^–1 i.v. bolus, 30 min prior to RNB-61; RNB-61 1 mg kg^–1 i.v. + tariquidar 5 mg kg^–1 i.v.; read-out: plasma AUCinf
parameter: AUC(0-inf)

Input line: What AUC(0-inf) value was documented for this compound, Cn1c(C(C)(C)C)cc(=NC(=O)c2cc(C(F)(F)F)ccc2OCC(C)(C)O)n1CC1CCC1 ?
Output line: 3560 ng·h/mL

* * *

Experiment: Single-dose pharmacokinetics in mice
Type: in vivo
Conditions: mouse, plasma, po, 4 mg kg^–1 p.o.
parameter: Cmax (ng/mL)
Number in ng/mL, nothing else.

Input line: What Cmax value was documented for this molecule, Cn1c(C(C)(C)C)cc(=NC(=O)c2cc(C(F)(F)F)ccc2OCC(C)(C)O)n1CC1CCC1 ?
Output line: 843

* * *

Biological target: human wild type CB2R (Homo sapiens, UniProt P34972)
Experiment: cAMP assay in CHO cells
Assay type: cell-based
Set-up: expressed in transfected cells; host or cells: CHO cells
Settings: Table 1; mean ± SD; read-out: EC50 hCB2R (cAMP assay)
parameter: EC50 (nM)
Number in nM, nothing else.

Check out these entries, answers already filled in.
{"smilesData": "N#Cc1cc(NC(=O)CCc2nc(-c3ccc(F)cc3Cl)no2)cnc1CC(F)(F)F", "quantitativeResult": 7.13}
{"smilesData": "COCCOCCc1cc(NC(=O)C(C)(C)S(=O)(=O)C2CCOCC2)on1", "quantitativeResult": 13}
{"smilesData": "Cn1c(C(C)(C)C)cc(=NC(=O)c2cc(C(F)(F)F)ccc2OCC(C)(C)O)n1CC1CCC1", "quantitativeResult": 0.31}

# context switch: different compound, same EC50
Input line: # get_value(readout= EC50, system= human wild type CB2R (Homo sapiens, UniProt P34972)) for CC(C)(Oc1ccc(C(F)(F)F)cn1)C(=O)Cc1cc(C(C)(C)C)no1
Output line: 0.26

* * *

Test: Brain penetration study with/without P-gp inhibitor tariquidar
Type: in vivo, male C57/BL6 mice
Details: male, C57/BL6, mouse, plasma, iv; RNB-61 1 mg kg^–1 i.v., no tariquidar; read-out: plasma Tmax
parameter: Tmax (min)
Number in min, nothing else.

Input line: What Tmax value was documented for this compound, Cn1c(C(C)(C)C)cc(=NC(=O)c2cc(C(F)(F)F)ccc2OCC(C)(C)O)n1CC1CCC1 ?
Output line: 15

* * *

Test: Brain penetration study with/without P-gp inhibitor tariquidar
Format: in vivo, male C57/BL6 mice
Conditions: male, C57/BL6, mouse, plasma, iv; RNB-61 1 mg kg^–1 i.v., no tariquidar; read-out: plasma AUCinf
parameter: AUC(0-inf) (ng·h/mL)
Number in ng·h/mL, nothing else.

Input line: What AUC(0-inf) value was documented for this molecule, Cn1c(C(C)(C)C)cc(=NC(=O)c2cc(C(F)(F)F)ccc2OCC(C)(C)O)n1CC1CCC1 ?
Output line: 3320

* * *

Target: mouse P-gp (Mus musculus, UniProt P21447)
Construct: expressed in transfected cells; host or cells: LLC-PK1 (porcine kidney epithelial) cells
Sequence (P21447 whole entry): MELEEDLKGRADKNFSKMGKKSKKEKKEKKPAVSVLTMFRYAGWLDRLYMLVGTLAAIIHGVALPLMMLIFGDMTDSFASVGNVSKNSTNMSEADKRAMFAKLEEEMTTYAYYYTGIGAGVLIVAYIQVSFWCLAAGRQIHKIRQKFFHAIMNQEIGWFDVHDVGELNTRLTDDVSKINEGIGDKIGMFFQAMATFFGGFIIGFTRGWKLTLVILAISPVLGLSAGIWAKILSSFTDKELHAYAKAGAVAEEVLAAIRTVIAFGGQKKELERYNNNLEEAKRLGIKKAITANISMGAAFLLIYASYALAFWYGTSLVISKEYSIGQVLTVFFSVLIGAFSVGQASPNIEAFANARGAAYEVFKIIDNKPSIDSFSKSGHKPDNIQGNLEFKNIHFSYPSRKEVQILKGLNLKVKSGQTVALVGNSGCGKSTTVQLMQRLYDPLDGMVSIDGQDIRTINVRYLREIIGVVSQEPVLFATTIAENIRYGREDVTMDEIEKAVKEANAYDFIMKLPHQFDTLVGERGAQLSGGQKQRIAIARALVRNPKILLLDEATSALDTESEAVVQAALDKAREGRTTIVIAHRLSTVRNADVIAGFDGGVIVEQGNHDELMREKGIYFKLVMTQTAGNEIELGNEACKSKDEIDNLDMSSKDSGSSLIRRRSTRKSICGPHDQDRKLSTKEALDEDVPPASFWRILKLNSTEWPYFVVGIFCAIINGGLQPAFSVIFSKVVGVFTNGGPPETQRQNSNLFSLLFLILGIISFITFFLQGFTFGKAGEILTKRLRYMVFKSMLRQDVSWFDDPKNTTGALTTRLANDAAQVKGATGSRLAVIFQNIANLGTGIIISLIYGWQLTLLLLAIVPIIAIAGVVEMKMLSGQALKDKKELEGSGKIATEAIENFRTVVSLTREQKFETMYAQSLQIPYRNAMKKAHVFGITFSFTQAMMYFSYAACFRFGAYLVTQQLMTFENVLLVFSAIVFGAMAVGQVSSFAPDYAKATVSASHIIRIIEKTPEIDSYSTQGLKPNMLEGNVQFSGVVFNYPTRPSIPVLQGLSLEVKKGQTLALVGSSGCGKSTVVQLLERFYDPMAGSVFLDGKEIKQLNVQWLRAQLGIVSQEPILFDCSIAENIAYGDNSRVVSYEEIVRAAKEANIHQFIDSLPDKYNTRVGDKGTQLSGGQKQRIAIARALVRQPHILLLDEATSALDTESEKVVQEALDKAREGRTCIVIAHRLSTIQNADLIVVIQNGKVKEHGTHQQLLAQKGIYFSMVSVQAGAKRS
Assay: P-gp assay in transfected LLC-PK1 cells
Assay type: in vitro ADME
Conditions: read-out: P-gp transporter ER mouse
parameter: efflux ratio at 3 h
The answer should be a number; do not append a unit.

Input line: What efflux ratio at 3 h value was documented for this molecule, Cn1c(C(C)(C)C)cc(=NC(=O)c2cc(C(F)(F)F)ccc2OCC(C)(C)O)n1CC1CCC1 ?
Output line: 26.8

* * *

Assay: Parallel artificial membrane permeability (PAMPA) assay
Type: in vitro ADME
Conditions: PAMPA; read-out: PAMPA Peff
parameter: Papp (×10⁻⁶ cm/s)
Number in ×10⁻⁶ cm/s, nothing else.

Input line: What Papp value was documented for this compound, Cn1c(C(C)(C)C)cc(=NC(=O)c2cc(C(F)(F)F)ccc2OCC(C)(C)O)n1CC1CCC1 [RNB-61] ?
Output line: 0.9

* * *

Assay: Lyophilization solubility assay (LYSA)
Assay type: physicochemical
Conditions: aqueous buffer, thermodynamic from solid; kinetic, phosphate buffer pH 6.5
parameter: solubility (µg/mL)
Number in µg/mL, nothing else.

Input line: What solubility value was documented for this compound, Cn1c(C(C)(C)C)cc(=NC(=O)c2cc(C(F)(F)F)ccc2OCC(C)(C)O)n1CC1CCC1 ?
Output line: 194
